// provenance: ChEMBL document CHEMBL1201862

Test system: OVCAR-5
EXPERIMENT_NOTES: NCI tumour cell line growth inhibition, 48 h
Activity calls are given as the source filed them. Cut-off read from the data, not from the text of the source: active = GI50 up to about 1.1 µM and inactive = higher.
Assign GI50 to each entry below.

Ask: Give its GI50 value. Item: O=C1CCCCCCCCCCOC(=O)CCCCCCCCCCO1
Reply: > 100 µM (inactive)

Ask: Also need COc1ccc(C(=O)C(C(=O)C(=O)Nc2ccc(Cl)c(Cl)c2)c2ccc(OC)cc2)cc1 (stereo not given) , thanks.
Reply: > 100 µM (inactive)

Ask: Also need O=C(O)c1cc(/N=C/c2ccccc2O)cc(C(=O)O)c1 , thanks.
Reply: > 100 µM (inactive)

Ask: Also need O=C1c2ccc3c4ccccc4n(Cc4ccccc4)c3c2C(=O)N1c1ccccc1 , thanks.
Reply: 17.6 µM (inactive)

Ask: Also need COC(=O)C(=O)C(C(=O)C(=O)Nc1cccc(C(C)=O)c1)c1nc2ccc([N+](=O)[O-])cc2nc1O (stereo not given) , thanks.
Reply: > 100 µM (inactive)

Ask: Also need CN(Cc1cnc2nc(N)nc(N)c2n1)c1ccc(C(=O)NCCCS(=O)(=O)O)cc1 , thanks.
Reply: > 100 µM (inactive)

Ask: Also need CCCCCN(CCCCC)C(=O)[C@H](CCC(=O)OCc1ccccc1)NC(=O)c1cc2ccccc2[nH]1 , thanks.
Reply: > 100 µM (inactive)

Ask: Also need CC(=O)OCC1OC(OC2C(CSC3OC(COC(C)=O)C(OC(C)=O)C(OC(C)=O)C3OC(C)=O)OC(OC(C)=O)C(OC(C)=O)C2OC(C)=O)C(OC(C)=O)C(OC(C)=O)C1OC(C)=O (stereo not given) , thanks.
Reply: 23.7 µM (inactive)

Ask: Also need CC1=CC(O)CC(C)(C)C1/C=C/C(C)=C/C=C/C(C)=C/C=C/C=C(C)/C=C/C=C(C)/C=C/C1=C(C)CC(O)CC1(C)C (stereo not given) , thanks.
Reply: 34.8 µM (inactive)

Ask: Also need NS(=O)(=O)c1nnc(NSc2ccc([N+](=O)[O-])cc2)s1 , thanks.
Reply: > 100 µM (inactive)

Ask: Also need COc1ccc(/C=C2\S/C(=N/Nc3nc(-c4ccccc4)cs3)NC2=O)cc1OC , thanks.
Reply: 23.4 µM (inactive)

Ask: Also need COc1cc(C2(C)SCCCS2)c(I)c(OC)c1OC , thanks.
Reply: > 100 µM (inactive)

Ask: Also need Cc1c(Cc2ccccc2)n(COCCCO)c(=O)[nH]c1=O , thanks.
Reply: > 100 µM (inactive)

Ask: Also need Oc1cccc2c1[nH]c1c(C3=C[C@@]4(O)CC/C=C\CCCCN5CC[C@@H]3[C@]3(CC6/C=C\CCCCN6[C@H]34)C5)nccc12 (stereo not given in full) , thanks.
Reply: 1.07 µM (active)

Ask: Also need CC(=O)NC1=C(C)C(=O)c2c(nc3n2CCC3OC(=O)c2ccccc2)C1=O (stereo not given) , thanks.
Reply: 1.99 µM (inactive)

Ask: Also need Nc1ccc(Oc2ccc(C34CC5CC(C3)CC(c3ccc(Oc6ccc(N)cc6)cc3)(C5)C4)cc2)cc1 , thanks.
Reply: 18.6 µM (inactive)

Ask: Also need C[C@H]1/C(=C/C(=O)OCCN(C)C)CC[C@H]2[C@H]1C(=O)C[C@H]1C(C)(C)[C@@H](O)CC[C@]21C , thanks.
Reply: > 100 µM (inactive)

Ask: Also need Cc1cc(C)nc(Sc2c([N+](=O)[O-])ncn2C)n1 , thanks.
Reply: > 100 µM (inactive)

Ask: Also need O=c1c2cnccc2cc2c3ccccc3ccn12 , thanks.
Reply: > 100 µM (inactive)

Ask: Also need COC1=CC(=O)C(C2CC(=O)c3c(O)cc(O)cc3O2)=CC1=O (stereo not given) , thanks.
Reply: 19.6 µM (inactive)

Ask: Also need CC(NNC(=O)c1cc[n+]([BH2-]C#N)cc1)c1ccc(Cl)c(Cl)c1 (stereo not given) , thanks.
Reply: 41.3 µM (inactive)

Ask: Also need Cn1c(=O)n2n(c1=O)C(C)(C13CC4CC(CC(C4)C1)C3)C13CC4CC(CC1C4)CC23 (stereo not given) , thanks.
Reply: > 100 µM (inactive)

Ask: Also need CCCCCCCC1(N=[N+]=[N-])C(=O)c2ccccc2N(C)C1=O (stereo not given) , thanks.
Reply: > 100 µM (inactive)

Ask: Also need COc1cc2c(cc1OC)C(=O)C1(C2)[C@H](c2ccccc2)C2C(=O)c3cc(OC)c(OC)cc3C2[C@H]1c1ccccc1 (stereo not given in full) , thanks.
Reply: > 100 µM (inactive)

Ask: Also need O=C1CCN2C(=Nc3cccc4cccc2c34)N1 , thanks.
Reply: > 100 µM (inactive)

Ask: Also need CCOC(=O)C1(c2ccccc2)CCCNCC1 (stereo not given) , thanks.
Reply: 81.3 µM (inactive)

Ask: Also need Nc1nc(N)c2cc(Sc3cccc(C(F)(F)F)c3)ccc2n1 , thanks.
Reply: 13 µM (inactive)

Ask: Also need O=C(Cn1c(C(=O)/C=C/c2ccc(Cl)c(Cl)c2)nc2ccccc21)c1ccccc1 , thanks.
Reply: 17.6 µM (inactive)

Ask: Also need CN(C)CC1CCCC/C1=N/O (stereo not given) , thanks.
Reply: > 100 µM (inactive)

Ask: Also need CCCC(=O)Nc1cc(/C=C/C(=O)N2C[C@H]3C[C@@]34C2=CC(=O)c2[nH]cc(C)c24)n(C)c1 , thanks.
Reply: < 0.0025 µM (active)

Ask: Also need c1ccc(-c2cc(-c3cccs3)c(-c3cccs3)s2)cc1 , thanks.
Reply: > 100 µM (inactive)

Ask: Also need CCOC(=O)C1=C(O)C(=O)c2ccsc2C1=O , thanks.
Reply: > 100 µM (inactive)

Ask: Also need O=C1Nc2ccccc2/C1=N/NC(=S)N1CCCCC1 , thanks.
Reply: 4.05 µM (inactive)

Ask: Also need CCCCNC1=C(C(=O)OCC)C(=O)CO1 , thanks.
Reply: > 100 µM (inactive)

Ask: Also need COC(=O)c1cc(O)nc(O)n1 , thanks.
Reply: > 100 µM (inactive)

Ask: Also need COC(=O)C(Cc1ccccc1)NC(=O)CCCNC(=O)OCc1ccccc1 (stereo not given) , thanks.
Reply: > 100 µM (inactive)

Ask: Also need Cc1cc2nc3c(C(O)CO)nn(-c4ccccc4)c3nc2cc1C (stereo not given) , thanks.
Reply: 22.3 µM (inactive)

Ask: Also need COC(=O)[C@H]1C2CC[C@@H]3C45C[C@@H](c6ccoc6)O[C@@H]4O[C@@H](O2)C31CCC5C (stereo not given in full) , thanks.
Reply: > 100 µM (inactive)

Ask: Also need OCn1nc2c(C3OCCO3)cc3ccccc3n2c1=S , thanks.
Reply: > 100 µM (inactive)

Ask: Also need O=C1CCCC2=C1CC1=C(CCCC1=O)N2c1cccc([N+](=O)[O-])c1 , thanks.
Reply: > 100 µM (inactive)

---

Test system: K562
EXPERIMENT_NOTES: NCI tumour cell line growth inhibition, 48 h
Active and inactive are the calls of the source. No stated cut-off is given here; in the data, active = GI50 up to about 1.1 µM and inactive = higher.
Choose the fitting class; nothing outside label 1 = active, label 0 = inactive is accepted.

Ask: // return assay outcome for CCOC(=O)c1cn(-c2ccc([N+](=O)[O-])cc2)c(=S)n2c1nc1ccccc12
Reply: label 0

Ask: Also need CCOC(=O)c1csc(NC(=O)CCN2CCN(C)CC2)n1 , thanks.
Reply: label 0

Ask: Also need Cc1cc(NS(=O)(=O)c2ccc(NC(=O)c3ccc(Cl)c4c(Nc5ccc(S(=O)(=O)N=C(N)N)cc5)c5ccccc5nc34)cc2)no1 , thanks.
Reply: label 0

Ask: Also need O=C(NCc1ccc2ccc3cccnc3c2n1)c1ccc[n+](Cc2ccccc2)c1 , thanks.
Reply: label 0

Ask: Also need CC[C@@H]1CC[C@@H]2[C@H](CC[C@]3(C)[C@@H](OS(=O)(=O)c4ccc(C)cc4)CC[C@@H]23)[C@H]1CO , thanks.
Reply: label 0

Ask: Also need CC(C)CC1c2[nH]c3ccccc3c2C[C@H]2C(=O)NC(CCC(=O)OC(C)(C)C)C(=O)N12 (stereo not given in full) , thanks.
Reply: label 0

Ask: Also need CC1=N/C(=C\c2cccc([N+](=O)[O-])c2)C(=O)O1 , thanks.
Reply: label 0

Ask: Also need Clc1cc(Cl)cc(/C=N/C23CC4CC(CC(C4)C2)C3)c1 , thanks.
Reply: label 0

Ask: Also need Cc1c(Cc2ccccc2)n(COCCCO)c(=O)[nH]c1=O , thanks.
Reply: label 0

Ask: Also need CN(C)CC1CCCC/C1=N/O (stereo not given) , thanks.
Reply: label 0

Ask: Also need COC(=O)/C(=N\NC(=S)NN)C(C(=O)C(=O)Nc1ccccc1C(N)=O)c1nc2ccccc2nc1O (stereo not given) , thanks.
Reply: label 0

Ask: Also need CCOC(=O)Cn1c(C)nc2nn(Cc3ccccc3)cc2c1=O , thanks.
Reply: label 0

Ask: Also need CC(C)CC1c2[nH]c3ccccc3c2C[C@H]2C(=O)NC(COC(C)(C)C)C(=O)N12 (stereo not given in full) , thanks.
Reply: label 0

Ask: Also need Cc1ccc2nc(N/N=C/c3sccc3C)cc(C)c2c1 , thanks.
Reply: label 0

Ask: Also need Clc1ccc(CNc2nc3ccccc3nc2-c2cccs2)c(Cl)c1 , thanks.
Reply: label 0

Ask: Also need CCOC(=O)C1OC(=O)CC1C1(C(=O)OCC)C=CC(=O)O1 (stereo not given) , thanks.
Reply: label 0

Ask: Also need COc1cc2c(cc1C)NC(=O)/C2=C/c1c(Cl)n(-c2ccccc2)c2ccccc12 , thanks.
Reply: label 0

Ask: Also need CNC(=O)c1cccc2c(Nc3ccc(NS(C)(=O)=O)cc3OC)c3cccc(C)c3nc12 , thanks.
Reply: label 1

Ask: Also need C[C@]12CCc3nonc3C1CC[C@@H]1C2CC[C@@]2(C)C1CC[C@@H]2O (stereo not given in full) , thanks.
Reply: label 0

Ask: Also need COC/C=C\[C@]1(O)CCCC[C@@H]1CC(OC)OC , thanks.
Reply: label 0
